Assay: [3H]Thymidine incorporation assay (cell toxicity)
Conditions: human
readout-label: CC50 at 72 h

Ask: May I ask what CC50 at 72 h has been recorded for "CN1CCOC[C@H](N(c2cc(C#CC(C)(C)C)sc2C(=O)O)C(=O)[C@H]2CC[C@H](C)CC2)C1=O" ?
Result: > 100 µM

Ask: Here is the next compound: "C[C@H](CC(=O)N1CCOCC1)N(c1cc(C#CC(C)(C)C)sc1C(=O)O)C(=O)[C@H]1CC[C@H](C)CC1"
Result: > 100 µM

Ask: // next record CC(C)C#Cc1cc(N(CC(=O)N2CCNCC2)C(=O)C2CCC(C)CC2)c(C(=O)O)s1 (stereo not shown)
Result: > 100 µM

Ask: Next entry: CC(CN(c1cc(C#CC(C)(C)C)sc1C(=O)O)C(=O)[C@H]1CC[C@H](C)CC1)C(=O)N1CCOCC1 (relative stereo)
Result: > 100 µM

Ask: Param item: "CCNC(=O)C[C@H](C)N(c1cc(C#CC(C)(C)C)sc1C(=O)O)C(=O)[C@H]1CC[C@H](C)CC1"
Result: > 100 µM

Ask: Please give the result for "CC[C@@H](C(=O)N1CCOCC1)N(c1cc(C#CC(C)C)sc1C(=O)O)C(=O)[C@H]1CC[C@H](C)CC1" too.
Result: > 100 µM

Ask: Likewise for "CC[C@@H](C(=O)N(C)C1CCOCC1)N(c1cc(C#CC(C)(C)C)sc1C(=O)O)C(=O)[C@H]1CC[C@H](C)CC1" ?
Result: 10 to 100 µM

* * *

Assay: [3H]Thymidine incorporation assay (cell toxicity)
Conditions: human
Task for the reader: assign each of the following compounds its reported CC50 at 72 h.

Ask: Fill in the blank: the reported CC50 at 72 h of "CC[C@@H](C(=O)N(C)CCO)N(c1cc(C#CC(C)(C)C)sc1C(=O)O)C(=O)[C@H]1CC[C@H](C)CC1" is ____.
Result: > 100 µM

Ask: Next entry: "CC[C@@H](C(=O)N1C[C@@H]2C[C@H]1CO2)N(c1cc(C#CC(C)(C)C)sc1C(=O)O)C(=O)[C@H]1CC[C@H](C)CC1"
Result: > 100 µM

Ask: How about this compound: "CCN(CC)C(=O)[C@H](C)N(c1cc(C#CC(C)(C)C)sc1C(=O)O)C(=O)[C@H]1CC[C@H](C)CC1"
Result: > 100 µM

Ask: Now consider "C[C@@H]1CN(C(=O)[C@H](C)N(c2cc(C#CC(C)(C)C)sc2C(=O)O)C(=O)[C@H]2CC[C@H](C)CC2)C[C@H](C)O1" and answer again.
Result: 10 to 100 µM

Ask: For "CC(C)(C)C#Cc1cc(N(CC(=O)N2CCCC2)C(=O)[C@H]2CC[C@H](C)CC2)c(C(=O)O)s1" then?
Result: > 100 µM

Ask: What do you get for C[C@@H](C(=O)N1CCCC(O)C1)N(c1cc(C#CC(C)(C)C)sc1C(=O)O)C(=O)[C@H]1CC[C@H](C)CC1 (stereo partly drawn) ?
Result: > 100 µM

* * *

Assay: [3H]Thymidine incorporation assay (cell toxicity)
Settings: human
Field: CC50 at 72 h. Provide a value for each of the molecules that follow.

Ask: Quick one: CC50 at 72 h of COC[C@@H](C(=O)N1CCCC1)N(C(=O)C1CCCCC1)c1cc(C#CC(C)(C)C)sc1C(=O)O [Compound 36] ?
Result: > 100 µM

Ask: Same for CC[C@@H](C(=O)N1CCOCC1)N(c1cc(-c2ccccc2)sc1C(=O)O)C(=O)[C@H]1CC[C@H](C)CC1 [Compound 126]
Result: > 100 µM

Ask: Now try CC(CC(=O)N1CCCC1)N(c1cc(C#CC(C)(C)C)sc1C(=O)O)C(=O)[C@H]1CC[C@H](C)CC1 (relative stereo) [Compound 101] .
Result: 10 to 100 µM

Ask: Item: CC1CN(C(=O)CN(c2cc(C#CC(C)(C)C)sc2C(=O)O)C(=O)[C@H]2CC[C@H](C)CC2)CCO1 (some centres unmarked) [Compound 26]
Result: 10 to 100 µM

Ask: Okay, and CNC(=O)CN(C(=O)C1CCC(C)CC1)c1cc(C#CC(C)C)sc1C(=O)O (centres unmarked) [Compound 70] ?
Result: > 100 µM

Ask: How about this molecule: C[C@@H](CN(c1cc(C#CC(C)(C)C)sc1C(=O)O)C(=O)[C@H]1CC[C@H](C)CC1)C(=O)N1CCOCC1 [Compound 108]
Result: > 100 µM

Ask: Then what about the molecule CCN1CCC[C@H](N(c2cc(C#CC(C)(C)C)sc2C(=O)O)C(=O)[C@H]2CC[C@H](C)CC2)C1=O [Compound 148] ?
Result: > 100 µM

Ask: Then this molecule: CC[C@@H](C(=O)N1CCOCC1)N(c1cc(C#CC(C)(C)C)sc1C(=O)O)C(=O)[C@H]1CC[C@H](C)CC1 [Compound 12]
Result: 10 to 100 µM

Ask: How about this molecule: C[C@H](CN(c1cc(C#CC(C)(C)C)sc1C(=O)O)C(=O)[C@H]1CC[C@H](C)CC1)C(=O)N1CCOCC1 [Compound 109]
Result: > 100 µM

Ask: Next up: COCCN(C)C(=O)C[C@H](C)N(c1cc(C#CC(C)(C)C)sc1C(=O)O)C(=O)[C@H]1CC[C@H](C)CC1 [Compound 114]
Result: > 100 µM

Ask: Then this molecule: CCN1CCCC[C@H](N(c2cc(C#CC(C)(C)C)sc2C(=O)O)C(=O)[C@H]2CC[C@H](C)CC2)C1=O [Compound 134]
Result: 10 to 100 µM

Ask: And then CC[C@@H](C(=O)N1CCOCC1)N(C(=O)c1ccc(Cl)cc1Cl)c1cc(C#CC(C)(C)C)sc1C(=O)O [Compound 143] , what is it?
Result: 10 to 100 µM

Ask: Likewise for CC(C)(C)C#Cc1cc(N(CC(=O)N2CCSCC2)C(=O)[C@H]2CC[C@H](C)CC2)c(C(=O)O)s1 [Compound 127] ?
Result: 10 to 100 µM

Ask: Now consider COC1CCN(C(=O)CN(c2cc(C#CC(C)(C)C)sc2C(=O)O)C(=O)[C@H]2CC[C@H](C)CC2)CC1 [Compound 44] .
Result: > 100 µM
